# ASSAY TARGET: Ataxin-2 (Homo sapiens) (UniProt Q99700)
# Sequence (Q99700 whole entry): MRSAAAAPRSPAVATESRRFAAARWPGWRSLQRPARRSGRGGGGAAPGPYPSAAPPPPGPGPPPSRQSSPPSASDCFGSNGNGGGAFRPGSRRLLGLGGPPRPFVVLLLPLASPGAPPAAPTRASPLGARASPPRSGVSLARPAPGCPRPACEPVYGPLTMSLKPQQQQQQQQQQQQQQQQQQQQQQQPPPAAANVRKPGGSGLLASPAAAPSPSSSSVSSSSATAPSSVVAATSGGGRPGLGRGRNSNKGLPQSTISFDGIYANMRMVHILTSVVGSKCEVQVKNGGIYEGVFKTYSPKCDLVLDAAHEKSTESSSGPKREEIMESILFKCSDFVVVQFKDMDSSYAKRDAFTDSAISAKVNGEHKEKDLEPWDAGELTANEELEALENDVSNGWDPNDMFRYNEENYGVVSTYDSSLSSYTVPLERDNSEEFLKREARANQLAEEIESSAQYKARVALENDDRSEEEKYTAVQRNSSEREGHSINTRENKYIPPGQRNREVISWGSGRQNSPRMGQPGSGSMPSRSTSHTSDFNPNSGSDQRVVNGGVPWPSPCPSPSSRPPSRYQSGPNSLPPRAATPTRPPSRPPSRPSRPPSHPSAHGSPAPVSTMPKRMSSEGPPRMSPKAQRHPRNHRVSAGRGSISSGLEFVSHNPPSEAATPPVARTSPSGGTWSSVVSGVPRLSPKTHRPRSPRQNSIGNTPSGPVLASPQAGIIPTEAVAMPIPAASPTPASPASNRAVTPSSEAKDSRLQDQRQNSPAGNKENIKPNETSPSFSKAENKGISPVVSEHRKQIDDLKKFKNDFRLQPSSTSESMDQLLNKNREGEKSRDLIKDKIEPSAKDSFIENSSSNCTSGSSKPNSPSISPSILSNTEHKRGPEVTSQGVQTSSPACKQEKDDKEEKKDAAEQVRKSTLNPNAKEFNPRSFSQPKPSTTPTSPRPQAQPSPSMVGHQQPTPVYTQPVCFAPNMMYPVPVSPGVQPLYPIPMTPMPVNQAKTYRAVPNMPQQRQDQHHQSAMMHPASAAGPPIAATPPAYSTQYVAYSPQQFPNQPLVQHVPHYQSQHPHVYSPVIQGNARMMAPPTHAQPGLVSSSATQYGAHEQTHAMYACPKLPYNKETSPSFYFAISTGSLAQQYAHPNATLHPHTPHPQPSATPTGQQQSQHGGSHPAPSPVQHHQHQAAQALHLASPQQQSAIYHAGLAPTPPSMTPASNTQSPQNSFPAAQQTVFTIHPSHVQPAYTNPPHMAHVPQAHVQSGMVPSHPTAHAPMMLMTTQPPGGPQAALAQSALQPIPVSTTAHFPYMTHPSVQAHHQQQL
# TEST METHOD NOTES: qHTS for Inhibitors of ATXN expression.
# Assay type: functional
Out of some 400,000 compounds screened, about 2,100 (0.53%) were called active. Another 14% or so got no clear call; they are omitted. This is one part of a sample in which actives are shown more often than they occur.
EXPERIMENTAL READOUT: Potency

Consider the reported Potency for these compounds:
| COMPOUND | ASSAY TARGET | Potency |
| --- | --- | --- |
| CN(C)C(=S)N=Nc1[nH]c2ccccc2c1O | Ataxin-2 (Homo sapiens) (UniProt Q99700) | 1.12 µM (active) |
| O=C(c1ccc(Cl)cc1)C1CCN(C(=O)c2ccccc2F)CC1 | Ataxin-2 (Homo sapiens) (UniProt Q99700) | inactive |
| O=C(C=Cc1ccccn1)c1ccccc1 | Ataxin-2 (Homo sapiens) (UniProt Q99700) | 35.5 µM (active) |
| O=C(/C=C/c1ccc(N2CCC(c3ccccc3)=N2)cc1)c1ccccc1 | Ataxin-2 (Homo sapiens) (UniProt Q99700) | inactive |
| Cc1[nH]c2ccccc2c1/C=C/C(=O)c1ccncc1 | Ataxin-2 (Homo sapiens) (UniProt Q99700) | inactive |

Look at each compound and report its Potency.
1. CCN=C(S)NCc1ccc2[nH]c(C)cc2c1
2. CC(C)c1cc(NCCOCCO)n2c(nc3ccccc32)c1C#N
3. COC(=O)Cc1csc(N/C=C2/C(=O)N(c3cccc(C(F)(F)F)c3)C(=O)c3ccccc32)n1
4. O=C(C=Cc1ccccn1)c1ccccc1O
5. CC(C)C(N)c1csc(NC(=O)Nc2cccc(C(F)(F)F)c2)n1 (centres undefined)

Solution:
1. inactive
2. inactive
3. inactive
4. 39.8 µM (active)
5. 35.5 µM (active)

Data provenance: ChEMBL document CHEMBL1201862
